Tested on: COLO 205 colon
methodDescription: NCI-60 one-dose screen, 48 h
appliedConditions: 10 µM unless noted
Compounds without any hit were thinned out: in the full panel of roughly 83,000, 20% have a hit. Active and inactive are the calls of the source. Rule for the calls: active = growth percent below 10; inactive = the rest.
API: response.call in T (active), F (inactive)

Lookup: Which outcome was entered for the compound "Nc1nccc2c1ccn2-c1ccc(NC(=O)Nc2cccc(C(F)(F)F)c2)cc1" in this test?
Found: F

Lookup: Which outcome was entered for the compound "C[C@H]1C=C(C[C@@H](O)CCCCCCCCCC[C@@H](O)[C@H]2CCC(=O)O2)C(=O)O1" in this test?
Found: F

Lookup: Which outcome was entered for the compound NC(CSC(c1ccccc1)(c1ccccc1)c1ccc(F)cc1)C(=O)O (stereo not drawn) in this test?
Found: T

Lookup: Which outcome was entered for the compound "O=C(NCCNc1nccc(-c2c(-c3cccc(O)c3)nc3sccn23)n1)c1ccc(N2CCOCC2)c(C(F)(F)F)c1" in this test?
Found: F

Lookup: Which outcome was entered for the compound O=C1OC(N(Cc2ccc(Cl)cc2)c2ccccc2)c2ccccc21 (stereo not drawn) in this test?
Found: F

Lookup: Which outcome was entered for the compound "O=C1C(Cl)=C(Nc2ccccc2)C(=O)C(Cl)=C1Nc1ccccc1" in this test?
Found: F

Lookup: Which outcome was entered for the compound "CC(=O)O[C@@H]1[C@@H](OC(C)=O)[C@H](OC(C)=O)CO[C@H]1Nc1cccc2ccccc12" in this test?
Found: F

Lookup: Which outcome was entered for the compound "O=C(Nc1ccc(-n2cc(-c3ccncc3)c(-c3ccc(O)c(Cl)c3)n2)cc1)c1ccc(Cl)c(C(F)(F)F)c1" in this test?
Found: F

Lookup: Which outcome was entered for the compound "O[C@@H]1CCO[C@H](c2ccc3ccccc3c2)C1" in this test?
Found: F

Lookup: Which outcome was entered for the compound CCC(CC(C)C)Nc1ccc(NC(CC)CC(C)C)cc1 (stereo not drawn) in this test?
Found: F

Lookup: Which outcome was entered for the compound COc1ccc2c(c1)OC(N(C(C)=O)C(C)=O)=C(C#N)C2c1ccc(F)cc1 (stereo not drawn) in this test?
Found: F

Lookup: Which outcome was entered for the compound "C=C1C(=O)O[C@H]2[C@H]1CC/C(COC(=O)n1ccnc1C)=C\CC[C@@]1(C)O[C@@H]21" in this test?
Found: F

Lookup: Which outcome was entered for the compound "COc1ccc(C(=O)NC(=O)Nc2ccc3c(c2)NC(=O)/C3=C\c2[nH]c(C)c(C(=O)O)c2C)c(F)c1" in this test?
Found: F

###

Tested on: UACC-62 melanoma
methodDescription: NCI-60 one-dose screen, 48 h (100 = growth as untreated, 0 = no growth, -100 = all killed)
appliedConditions: 10 µM unless noted
The panel holds about 83,000 compounds, 20% with a hit somewhere; the sample as a whole holds those more often.
Field: growth. Provide a value for each of the compounds that follow.
Just the number please, in %, no unit attached.

Lookup: Can you look up the measured growth of "COC(=O)Nc1nc2ccc(Sc3ccccc3)cc2[nH]1" for me?
Found: 35.9

Lookup: Can you look up the measured growth of "O=[N+]([O-])c1cccc2cc(S(=O)(=O)O)ccc12" for me?
Found: 100

Lookup: Can you look up the measured growth of "S=c1[nH]nc(Cn2c3ccccc3c3ccncc32)o1" for me?
Found: 93.3

###

Tested on: MCF7 breast
methodDescription: NCI-60 one-dose screen, 48 h (100 = growth as untreated, 0 = no growth, -100 = all killed)
appliedConditions: 10 µM unless noted
The panel holds about 83,000 compounds, 20% with a hit somewhere; the sample as a whole holds those more often.
Field: growth. Provide a value for each of the molecules that follow.
Just the number please, in %, no unit attached.

Lookup: Can you look up the measured growth of O=C(c1cc(-c2ccc(Cl)cc2)nc2ccccc12)N1N=C(c2ccccc2)CC1c1cc(-c2ccccc2)nn1-c1ccccc1 (stereo not given) for me?
Found: 76.3

Lookup: Can you look up the measured growth of "COc1ccc(Cl)cc1NC(=O)c1cc2c([nH]1)-c1nc(N)sc1CCC2" for me?
Found: 98.9

Lookup: Can you look up the measured growth of CCOC(=O)C1CSC(C)(C(=O)OCC)N1 (stereo not given) for me?
Found: 93.4

Lookup: Can you look up the measured growth of "CCCCCC/C=N/Nc1ccc([N+](=O)[O-])cn1" for me?
Found: 90.7

Lookup: Can you look up the measured growth of "Cn1c2ccccc2c2ssc(=S)c21" for me?
Found: 92.9

Lookup: Can you look up the measured growth of "Nc1nc(=S)ss1" for me?
Found: 98.3

Lookup: Can you look up the measured growth of "O=C(O)c1ccc(-n2cc(/C=N/Nc3ccc(Cl)cc3)c(-c3ccc(F)c(F)c3)n2)cc1" for me?
Found: 46.5

Lookup: Can you look up the measured growth of "CCOC(=O)c1noc2c1CCc1c-2cn(Cc2ccc(OC)cc2)c1-c1cc(OC)c(OC)c(OC)c1" for me?
Found: 18

Lookup: Can you look up the measured growth of "CCCC(=O)Oc1ccc(/C(=C(\C)c2ccc(OC)cc2)c2ccc(OCCN3CCCCC3)cc2)cc1" for me?
Found: 28.3

Lookup: Can you look up the measured growth of "NC(=O)C1=C[C@H]2[C@H]3C=C[C@@]2(O)C(=O)O[C@@H]3O1" for me?
Found: 21.6

Lookup: Can you look up the measured growth of "CN(C)c1ccc2cc(-c3nc4ccccc4s3)c(N)nc2c1" for me?
Found: 19.7

Lookup: Can you look up the measured growth of "CN(C)c1ccc(/C=c2\s/c(=C\C(=O)C(C)(C)C)[nH]c2=O)cc1" for me?
Found: 86.7

Lookup: Can you look up the measured growth of "Cc1[nH]n(C(=O)c2ccncc2)c(=O)c1N=Nc1ccc(S(=O)(=O)Nc2ccncn2)cc1" for me?
Found: 102

Lookup: Can you look up the measured growth of "CC(=O)c1cc2c(N)c(C(=O)Nc3cccc(Cl)c3)sc2nc1C" for me?
Found: 74

Lookup: Can you look up the measured growth of CC(C)(C)NCC(O)COc1c(Br)c(Br)c(Br)c2c1OC(C)(C)C2 (stereo not given) for me?
Found: -74.2
